Tested on: SNB-19
assayDetails: NCI tumour cell line growth inhibition, 48 h
Calls of active or inactive are those of the source. Cut-off read from the data, not from the text of the source: active = GI50 up to about 1.1 µM and inactive = higher.
Reply using exactly one outcome from active, inactive

Dear all, I need the recorded test outcome for C=CC(C)(C)n1cc(C2=C(O)C(=O)C(c3cn(C(C)(C)C=C)c4ccccc34)=C(OC(C)=O)C2=O)c2ccccc21 , thank you.
active

Per the assay record, what outcome was assigned to CN1CN(c2ccccc2)C2(CCN(CC(C)(c3ccc(F)cc3)C3OCCCO3)CC2)C1=O (stereo unspecified) ?
inactive

I'd appreciate the recorded outcome for CCCc1cc2c(cc1O)CC[C@@H]1[C@@H]2CC[C@]2(C)[C@@H](O)CC[C@@H]12 from this test.
inactive

Look up the recorded call for Nc1nncc2[nH]nnc12 in this test.
inactive

Can you look up the reported call for COc1ccc2c(c1)OC[C@@H]1c3cc4c(cc3O[C@H]21)OCO4 for me?
inactive

Per the records of this test, what outcome belongs to CO[C@@H]1[C@H](O)CC[C@]2(CO2)[C@H]1[C@@]1(C)O[C@@H]1CC=C(C)C ?
inactive
